target: FAAH (Rattus norvegicus, UniProt P97612); construct: Preparation of Rat Brain Membranes Preparations (FAAH Enzyme Solution); from tissue; host or cells: rat cerebrum (brain membrane preparation); test: Determination of FAAH inhibitory activity in rat (rat brain membrane preparations, [3H]-anandamide hydrolysis); format: biochemical; settings: rat brain membrane preparations; 100 nM test substance; read-out: FAAH Inhibition, Inhibition Rate at 100 nM
Sequence (P97612 whole entry): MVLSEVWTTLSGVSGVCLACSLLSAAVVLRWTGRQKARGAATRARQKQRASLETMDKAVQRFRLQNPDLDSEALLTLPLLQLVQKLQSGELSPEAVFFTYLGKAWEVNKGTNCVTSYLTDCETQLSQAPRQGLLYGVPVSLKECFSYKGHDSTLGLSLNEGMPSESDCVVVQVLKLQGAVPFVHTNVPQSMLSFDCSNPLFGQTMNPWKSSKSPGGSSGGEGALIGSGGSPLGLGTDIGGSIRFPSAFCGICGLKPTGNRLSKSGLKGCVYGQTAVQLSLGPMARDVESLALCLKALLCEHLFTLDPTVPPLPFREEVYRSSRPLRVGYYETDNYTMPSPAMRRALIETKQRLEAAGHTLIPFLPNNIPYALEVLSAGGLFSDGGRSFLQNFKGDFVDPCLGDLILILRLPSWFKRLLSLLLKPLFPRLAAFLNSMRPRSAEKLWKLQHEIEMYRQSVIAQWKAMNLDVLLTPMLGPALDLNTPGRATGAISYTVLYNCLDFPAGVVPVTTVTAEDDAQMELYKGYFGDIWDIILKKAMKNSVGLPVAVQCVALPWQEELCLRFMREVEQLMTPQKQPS
Hi there, I'd appreciate the recorded inhibition at 0.1 µM for every entry that follows.
Response body: numeric value in %, unit text excluded.

Q: Tell me the measured inhibition at 0.1 µM of COCCc1ncc2c(n1)n(C)c(=O)n2C(=O)N1CC(c2ccc(F)cc2)C1 , please.
A: 120

Q: What value of inhibition at 0.1 µM has been reported for the following molecule? CN(C)C(=O)n1c(=O)n(C)c2cnc(COc3ccccc3OC(F)(F)F)nc21
A: 80

Q: Query: inhibition at 0.1 µM; subject: CN(C)C(=O)n1c(=O)n(C)c2cnc(CCc3ccc(F)cc3F)nc21
A: 94

Q: Entry CN(C)C(=O)n1c(=O)n(C)c2cnc(CCCOc3cccc(F)c3)nc21 has what inhibition at 0.1 µM?
A: 78

Q: Give its inhibition at 0.1 µM value. Item: CCOc1cccc(-c2ncc3c(n2)n(C(=O)N2CCCC2)c(=O)n3C)c1
A: 101

---

Give measured inhibition at 0.1 µM for each item. Keep answers brief.
Molecular target: FAAH (Rattus norvegicus)
Construct: Preparation of Rat Brain Membranes Preparations (FAAH Enzyme Solution); from tissue; host or cells: rat cerebrum (brain membrane preparation)
Assay: Determination of FAAH inhibitory activity in rat (rat brain membrane preparations, [3H]-anandamide hydrolysis)
Format: biochemical
Conditions: rat brain membrane preparations; 100 nM test substance; read-out: FAAH Inhibition, Inhibition Rate at 100 nM
Method: Determination of FAAH Inhibitory Activity in Rat The preparation of rat brain membranes preparations and the determination of FAAH inhibitory activity were carried out according to the Jonsson et al. method [Br. J. Pharmacol., 133, 1263 (2001)]. (1) Preparation of Rat Brain Membranes Preparations (FAAH Enzyme Solution) The cerebrum was extracted from rats and was freeze-stored at −80° C. […]
State the value, then name its unit.

Q: Can you look up the measured inhibition at 0.1 µM of Cn1c(=O)n(C(=O)N2CCC2)c2nc(CCc3cccc(F)c3)ncc21 for me?
A: 98%

Q: Which inhibition at 0.1 µM value belongs to COCc1ncc2c(n1)n(C)c(=O)n2C(=O)N1CC(c2ccc(OC)cc2)C1 ?
A: 89%

Q: If you can, please state the reported inhibition at 0.1 µM value of Cc1cccc(N2CCN(C(=O)n3c(=O)n(C)c4nc(-c5ccccc5)ncc43)CC2)n1 .
A: 97%

Q: What does the record list as inhibition at 0.1 µM for CN(C)C(=O)n1c(=O)n(C)c2cnc(CCc3cccc(F)c3)nc21 ?
A: 103%

Q: Which inhibition at 0.1 µM value belongs to CN(C)C(=O)n1c(=O)n(C)c2nc(-c3ccncc3)ncc21 ?
A: 97%

Q: Which inhibition at 0.1 µM is reported for this molecule? COc1cccc(-c2ncc3c(n2)n(C)c(=O)n3C(=O)N2CCC2)c1
A: 101%

Q: What does the record list as inhibition at 0.1 µM for CN(C)C(=O)n1c(=O)n(C)c2cnc(CCc3ccc(F)c(C4CC4)c3)nc21 ?
A: 95%

Q: Request the reported inhibition at 0.1 µM associated with CCN(C)C(=O)n1c(=O)n(C)c2cnc(-c3ccc(OC(F)F)cc3)nc21
A: 101%

Taken from patent US8735406B2.
